Origin of measurements: patent US10696615B2

- Tested on: SR
- test details: NCI in vitro cancer screen, Leukemia
- Type: cell-based, human
experimental endpoint: TGI

Qu. Endpoint output: TGI of COc1cc(/C=C/c2cc(O)cc(OCC=C(C)C)c2)ccc1O . Value?
Ans. >100 µM

Qu. Try this compound too: CC(C)=CCOc1cc(O)cc(/C=C/c2ccc(O)c(O)c2)c1
Ans. >100 µM

Qu. Try this compound too: COc1cc(/C=C/c2cc(O)cc(OC)c2CC=C(C)C)ccc1O
Ans. 24.4 µM

Qu. Try this compound too: COc1cc(/C=C/c2cc(O)c(CC=C(C)C)c(O)c2)ccc1O
Ans. >100 µM

----------
- System: ADR-RES (NCI/ADR-RES)
- test details: NCI in vitro cancer screen, Ovarian Cancer
- Type: cell-based, human
- condition notes: Homo sapiens, NCI/ADR-RES
Label yes when GI50 is strictly below 1000 nM; otherwise label no.

Qu. Item COc1cc(/C=C/c2cc(O)cc(OC)c2CC=C(C)C)ccc1O : GI50 beneath 1000 nM, strictly?
Ans. yes

Qu. Try this compound too: COc1cc(/C=C/c2cc(O)cc(OCC=C(C)C)c2)ccc1O
Ans. yes

Qu. Try this compound too: CC(C)=CCc1c(O)cc(/C=C/c2ccc(O)cc2)c(CC=C(C)C)c1O
Ans. no

Qu. Try this compound too: COc1cc(/C=C/c2cc(O)c(CC=C(C)C)c(O)c2)ccc1O
Ans. no

Qu. Try this compound too: COc1cc(O)cc(/C=C/c2ccc(O)c(O)c2)c1CC=C(C)C
Ans. yes

Qu. Try this compound too: CC(C)=CCc1c(O)cc(/C=C/c2ccc(O)c(O)c2)c(CC=C(C)C)c1O
Ans. no

Qu. Try this compound too: CC(C)=CCOc1cc(O)cc(/C=C/c2ccc(O)c(O)c2)c1
Ans. no

----------
- System: MDA-MB-231 (MDA-MB-231/ATCC)
- test details: NCI in vitro cancer screen, Breast Cancer
- Assay type: cell-based, human
- condition notes: Homo sapiens, MDA-MB-231; read-out: LC50 (the source's name)
Assign CC50 to each entry below.
The figure you give is taken to be in µM; do not add the unit.

Qu. Endpoint output: CC50 of COc1cc(/C=C/c2cc(O)cc(OC)c2CC=C(C)C)ccc1O . Value?
Ans. 61.2

Qu. Try this compound too: CC(C)=CCc1c(O)cc(/C=C/c2ccc(O)c(O)c2)c(CC=C(C)C)c1O
Ans. 10.7

Qu. Try this compound too: CC(C)=CCc1c(O)cc(/C=C/c2ccc(O)cc2)c(CC=C(C)C)c1O
Ans. 17.2

Qu. Try this compound too: COc1cc(/C=C/c2cc(O)cc(OCC=C(C)C)c2)ccc1O
Ans. 15.7

----------
Assign CC50 to each entry below.
- System: SK-OV-3
- test details: NCI in vitro cancer screen, Ovarian Cancer
- Type: cell-based, human
- condition notes: Homo sapiens, SK-OV-3; read-out: LC50 (the source's name)

Qu. # query: CC50 | item COc1cc(O)cc(/C=C/c2ccc(O)c(O)c2)c1CC=C(C)C | system: SK-OV-3
Ans. > 100 µM

Qu. Try this compound too: CC(C)=CCOc1cc(O)cc(/C=C/c2ccc(O)c(O)c2)c1
Ans. > 100 µM

Qu. Try this compound too: COc1cc(/C=C/c2cc(O)c(CC=C(C)C)c(O)c2)ccc1O
Ans. > 100 µM
